- Tested on: OVCAR-5
- method.notes: NCI tumour cell line growth inhibition, 48 h
Active and inactive are the calls of the source. No stated cut-off is given here; in the data, active = GI50 up to about 1.1 µM and inactive = higher. Where a SMILES comes first, the peptide text is derived from it. The star is where a group is joined. Boc = CC(C)(C)OC(=O)*; Bn = c1ccc(C*)cc1

molecule: Cc1c(CCOC=O)c(=O)[nH]c2nncn12
tested.target: OVCAR-5
GI50: > 100 µM (inactive)
--
molecule: COC(=O)C1C(OC(=O)C(Cl)(c2ccccc2)c2ccccc2)CC2CCC1N2C (stereo unspecified)
tested.target: OVCAR-5
GI50: > 100 µM (inactive)
--
molecule: NC(=O)c1nnc2ccc(F)cc2c1N
tested.target: OVCAR-5
GI50: 70 µM (inactive)
--
molecule: COC(=O)c1cc(O)ccc1O [METHYL 2,5-DIHYDROXYBENZOATE]
tested.target: OVCAR-5
GI50: > 100 µM (inactive)
--
molecule: OC1C#CCSCC#C/C=C\1 (stereo unspecified)
tested.target: OVCAR-5
GI50: > 100 µM (inactive)
--
molecule: COC(=O)C(CC(C)C)NC(=O)CNC(=O)C(Cc1ccc(OCc2ccccc2)cc1)NC(=O)C(COCc1ccccc1)NC(=O)OC(C)(C)C (stereo unspecified) (Boc-S(Bn)Y(Bn)GL-OMe; configuration not given here)
tested.target: OVCAR-5
GI50: > 100 µM (inactive)

====

- System: MDA-MB-231
- method.notes: NCI tumour cell line growth inhibition, 48 h
The source made the active and inactive calls. No stated cut-off is given here; in the data, active = GI50 up to about 1.1 µM and inactive = higher.

compound: CNc1cccc2c1C(C)C[C@]1(C)C(=O)Nc3ccccc3[C@H]21 (some centres undefined)
GI50: 20.6 µM (inactive)
//
compound: CC(C)(C)OC(=O)N(CCNS(=O)(=O)c1cccc2cnccc12)CCC(=O)ON1C(=O)CCC1=O
GI50: > 100 µM (inactive)
//
compound: N#CC(NCCc1ccccc1)c1ccc(C(C#N)NCCc2ccccc2)cc1 (centres undefined)
GI50: > 100 µM (inactive)
//
compound: COC(=O)c1cc2c3c(c(C(C)=O)c(OC)c2[nH]1)NCC3
GI50: > 50 µM (inactive)
//
compound: COC(=O)C(=O)C(C(=O)OC)C(=O)C(=O)Nc1c(Cl)cc([N+](=O)[O-])cc1Cl (centres undefined)
GI50: > 100 µM (inactive)
//
compound: CN(C)CC(NC(NCS)C(=O)NCCNc1ccc(NCCNC(=O)C(NCS)NC(CN(C)C)OCCl)c2c1C(=O)c1c(O)ccc(O)c1C2=O)OCCl (centres undefined)
GI50: 0.0547 µM (active)
//
compound: COc1cc(Cn2c3c(c4c(CN(C)C)c(O)ccc42)C(=O)c2ccccc2C3=O)cc(OC)c1
GI50: 17.7 µM (inactive)
//
compound: CC1CN(CCO)CC(C)O1 (centres undefined)
GI50: > 100 µM (inactive)
//
compound: N#C/C(=C/n1c(=S)[nH]c2ccccc21)C(N)=O
GI50: > 100 µM (inactive)
//
compound: C(/c1ccco1)=c1/nc(-c2ccccc2)n2c1nc1ccccc12
GI50: 16.5 µM (inactive)
//
compound: Cc1cc(/N=N/c2c(O)ccc3ccccc23)ccc1/N=N/c1cccc([N+](C)(C)C)c1
GI50: 8.57 µM (inactive)
//
compound: CC[N+]1(C)CCC(O)(c2ccc(C)cc2)C(C(=O)c2ccc(C)cc2)C1 (centres undefined)
GI50: 26.7 µM (inactive)
//
compound: CC1=C[C@H](C[C@]2(C)c3c(c4c(C)cccc4oc3=O)O[C@@H]2C)OC1=O
GI50: 40.2 µM (inactive)
//
compound: O=C1C(/N=N/c2ccc(-c3nc4ccccc4o3)cc2)NC(=S)N1c1ccccc1 (centres undefined)
GI50: > 100 µM (inactive)
//
compound: CNC(=S)N/N=C(/C)CCC/C(C)=N/NC(=S)NC
GI50: > 28.6 µM (inactive)
//
compound: CC(C)(C)c1cc(C2NC(=O)NC2=O)cc(C(C)(C)C)c1O (centres undefined)
GI50: 35.6 µM (inactive)
//
compound: CCN(CC)CCCC(C)Nc1ccnc2cc3ccccc3cc12 (centres undefined)
GI50: 8.57 µM (inactive)
//
compound: CCCN1C(=O)CN(S(=O)(=O)c2ccc(Cl)cc2)C1=O
GI50: > 100 µM (inactive)
//
compound: O=c1[nH]n(Cc2ccccc2Cl)c2ccccc12
GI50: > 100 µM (inactive)
//
compound: CC1(C)O[C@H]2OC(CO)C(OS(C)(=O)=O)[C@H]2O1 (some centres undefined)
GI50: > 100 µM (inactive)
//
compound: CC12CCC(C(=O)O1)C(C)(C)O2 (centres undefined)
GI50: > 100 µM (inactive)
//
compound: C=C1CC2C[C@H](OS(=O)(=O)c3ccc(C)cc3)C(C1)N2C (some centres undefined)
GI50: > 100 µM (inactive)
//
compound: COc1cccc([C@@H]2C/C(=N\NC(=O)C(=O)N[C@@H](C)c3ccccc3)c3ccccc3N2)c1
GI50: 35.6 µM (inactive)
//
compound: COC(=O)c1oc([N+](=O)[O-])c(Cl)c1Cl
GI50: 7.35 µM (inactive)
//
compound: O=C(Cn1ccc(=O)[nH]c1=O)Nc1ccc(C(=O)O)c(O)c1
GI50: > 100 µM (inactive)
//
compound: Cc1ccc(S(=O)(=O)NC(=O)Nc2c(S(N)(=O)=O)cc(S(N)(=O)=O)c(Cl)c2Cl)cc1
GI50: > 100 µM (inactive)
//
compound: CCn1ncc(Oc2c(Cl)cc(N)cc2Cl)c(Cl)c1=O
GI50: 54.6 µM (inactive)
//
compound: COc1ccc2c(c1)[n+]([O-])c1cc(C#N)ccc1[n+]2[O-]
GI50: 12.5 µM (inactive)
//
compound: CCOC(=O)CC[C@H](N)C(=O)N[C@H](Cc1ccc(N(CCCl)CCCl)cc1)C(=O)OCC
GI50: 6.55 µM (inactive)
//
compound: CCCc1nc2c(n1CC)C(=O)c1ccccc1C2=O
GI50: 79.6 µM (inactive)
//
compound: C/C(=N/NC(=S)N1CCCCC1)c1cccc(/C(C)=N\NC(=S)N2CCCCC2)n1
GI50: 1.31 µM (inactive)
//
compound: COc1cc2cc(C(=O)N3CC(COS(C)(=O)=O)c4ccc(O)cc43)[nH]c2c(OC)c1OC (centres undefined)
GI50: < 0.0001 µM (active)
//
compound: N=C(N)NS(=O)(=O)c1ccc(NNc2c3ccccc3nc3c(C(=O)Nc4ccc(S(=O)(=O)Nc5ncccn5)cc4)cccc23)cc1
GI50: 60.1 µM (inactive)
//
compound: O=C(Nc1nc(C23CC4CC(CC(C4)C2)C3)cs1)c1cc2c(ccc3ccccc32)oc1=O
GI50: > 100 µM (inactive)
//
compound: COC(=O)C(=O)C(C(=O)C(=O)Nc1nnc(S)[nH]1)c1nc2ccc([N+](=O)[O-])cc2nc1O (centres undefined)
GI50: > 100 µM (inactive)
//
compound: C=CC(=O)N1C/C(=C\c2ccc(Cl)cc2)C(=O)/C(=C/c2ccc(Cl)cc2)C1
GI50: 0.255 µM (active)
//
compound: COc1c(O)c2c(c3cc(C(=O)N4CCc5c4c(O)c(OC)c4[nH]c(C(=O)N6CC7CC78C6=CC(=O)c6[nH]cc(C)c68)cc54)[nH]c13)CCN2C(N)=O (centres undefined) [CC-1065]
GI50: 0.486 µM (active)
//
compound: Cc1cc2c(cc1Cl)SC(NNC1=NCCN1)=NS2(=O)=O
GI50: > 10 µM (inactive)
//
compound: O=C1[C@@H]2[C@@H](c3ccccc3)[C@]2(Cl)C(=O)[C@H]2[C@H](c3ccccc3)[C@@]12Cl
GI50: > 100 µM (inactive)

====

- Tested on: NCI-H522
- method.notes: NCI tumour cell line growth inhibition, 48 h
Active and inactive are the calls of the source. No stated cut-off is given here; in the data, active = GI50 up to about 1.1 µM and inactive = higher.
Possible outcomes: active, inactive

molecule: COc1ccccc1N(CN1C(=O)CCC1C(=O)O)C(C)=O (stereo not drawn)
category: inactive
--
molecule: Cc1nn(-c2ccccc2)c2c1CC(=O)Nc1ccccc1-2
category: active
--
molecule: C=C1CC(OC)(C(OC)C(=O)N(C)[C@H]2OCO[C@H]3C2O[C@H](C[C@@H](COC)OC)C(C)(C)C3OC)O[C@H](C)[C@@H]1C (stereo partly drawn)
category: inactive
--
molecule: O=C(NCCCCCCNC(=O)n1cc(F)c(=O)[nH]c1=O)NCCCOCCOCCOCCOCCOCCOCCOCCOCCOCCOCCOCCOCCOCCOCCOCCOCCOCCOCCOCCOCCOCCCNC(=O)C(O)C(O)C(OC1OC(CO)C(O)C(O)C1O)C(O)CO (stereo not drawn)
category: inactive
--
molecule: COC(=O)C(=O)C(C(=O)C(=O)Nc1nnc(S)[nH]1)c1nc2ccc([N+](=O)[O-])cc2nc1O (stereo not drawn)
category: inactive
--
molecule: CC1(C)OC2COC(c3n[nH]c4c(=O)[nH]c(=O)[nH]c34)C2O1 (stereo not drawn)
category: inactive
--
molecule: COc1ccc(N2C(=O)CC(=O)N(C(=O)CCCCCCCCC(=O)N3C(=O)CC(=O)N(c4ccc(OC)cc4)C3=S)C2=S)cc1
category: inactive
--
molecule: Cc1c(CCOC=O)c(=O)[nH]c2nncn12
category: inactive
